Each record here notes measured Absorption-maximum wavelength.
- assayExplanation: Absorption-maximum wavelength λmax, molar extinction coefficient ε and solution colour in each solvent
- Assay type: physicochemical
- measurementConditions: Isopar M
measurementType: Absorption-maximum wavelength

>>> measurement("CCCCc1ccc(N=Nc2cc(C#N)c(N=Nc3cc(OC)c(N(CC(CC)CCCC)CC(CC)CCCC)cc3NC(C)=O)s2)cc1 (stereo not shown)")
"668 nm"
>>> measurement("C=CCn1c(N=Nc2ccc(N(CCC)CCC)cc2NC(C)=O)nc(C#N)c1C#N [Comparative example compound 2, reference compound]")
"514 nm"
>>> measurement("CCCCC(CC)CN(CC(CC)CCCC)c1cc(NC(C)=O)c(/N=N/c2nc(Cl)c(C=O)s2)cc1OC (stereo not shown)")
"618 nm"
>>> measurement("CCCCC(CC)COC(=O)c1ccc(N=Nc2cc(C#N)c(N=Nc3ccc(N(CC(CC)CCCC)CC(CC)CCCC)cc3C)s2)cc1 (stereo not shown)")
"634 nm"
